TEST: Luminescence Cell-Based Dose Response HTS to Identify Activators of Luciferase Translation or Activity in H4 […] Cells. [Related pubchem assays: 1829 (Project Summary), 1814 (Primary HTS)]
Format: functional
The source made the active and inactive calls.

MOLECULE	EC50
O=c1c2ccccc2nc2c3ccccc3c(NCCN3CCOCC3)nn12	18 µM (active)
O=C(NCCc1ccccc1)c1ccccc1NC(=O)C1CCCCC1C(=O)O (stereo unspecified)	17.9 µM (active)
CCCn1nnc2sc3c(c2c1=O)CCC(C)C3 (stereo unspecified)	0.528 µM (active)
CC1CCCCN1CCCNC(=O)c1ccc2nc(N3CCCCC3)sc2c1 (stereo unspecified)	< 0.1 µM (active)
CC1CC(c2ccccc2)=Nc2ccccc2N1 (stereo unspecified)	10.6 µM (active)
COC(=O)c1sccc1N/N=C/c1ccc(OC)c(OC)c1OC	9.96 µM (active)

----------
TESTED_ON: Ubiquitin-conjugating enzyme E2 N (Homo sapiens)
Sequence (P61088 whole entry): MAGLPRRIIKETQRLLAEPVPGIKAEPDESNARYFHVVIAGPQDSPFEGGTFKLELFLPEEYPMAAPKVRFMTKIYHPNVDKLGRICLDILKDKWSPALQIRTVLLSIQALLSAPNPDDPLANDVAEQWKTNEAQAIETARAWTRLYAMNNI
Type: functional
Where a name gives a salt, the structure may show the parent alone. Calls of active or inactive are those of the source.
Classes used: active, inactive

MOLECULE	ANSWER_LABEL
CCCCCCCCCCOC(=O)Cn1c(COc2ccc(Cl)cc2)[n+](C)c2ccccc21	active
CN(C)CCOC(=O)c1ccc2[nH]c3c(c2c1)CSCC3	inactive
COc1ccc(-c2noc(CCC(=O)NCC3CCN(Cc4cccc(C)c4)CC3)n2)cc1	inactive
CCCCN(CC)S(=O)(=O)c1ccc(C(=O)N(CCCN(C)C)c2nc3cc(C)cc(C)c3s2)cc1	inactive
CCOC(=O)C1=C(c2ccccc2)N=C(N)NC1c1ccc(OCc2ccc(C(=O)OC)cc2)cc1 (centres undefined)	inactive
CC(C)COCC(CN(Cc1ccccc1)c1ccccc1)N1CCCC1 (centres undefined)	inactive
N=C(N)N/N=C/c1ccc(N(c2ccccc2)c2ccccc2)cc1	active
COc1ccc(-c2c3c(nc4sc(C(=O)Nc5ccccc5)c(N)c24)CCC3)cc1	inactive
CCCCc1oc2ccccc2c1C(=O)c1cc(I)c(OCCN(CC)CC)c(I)c1 [AMIODARONE HYDROCHLORIDE]	inactive

----------
TESTED_ON: Cytochrome P450 3A4 (Homo sapiens, UniProt P08684)
Sequence (P08684 whole entry): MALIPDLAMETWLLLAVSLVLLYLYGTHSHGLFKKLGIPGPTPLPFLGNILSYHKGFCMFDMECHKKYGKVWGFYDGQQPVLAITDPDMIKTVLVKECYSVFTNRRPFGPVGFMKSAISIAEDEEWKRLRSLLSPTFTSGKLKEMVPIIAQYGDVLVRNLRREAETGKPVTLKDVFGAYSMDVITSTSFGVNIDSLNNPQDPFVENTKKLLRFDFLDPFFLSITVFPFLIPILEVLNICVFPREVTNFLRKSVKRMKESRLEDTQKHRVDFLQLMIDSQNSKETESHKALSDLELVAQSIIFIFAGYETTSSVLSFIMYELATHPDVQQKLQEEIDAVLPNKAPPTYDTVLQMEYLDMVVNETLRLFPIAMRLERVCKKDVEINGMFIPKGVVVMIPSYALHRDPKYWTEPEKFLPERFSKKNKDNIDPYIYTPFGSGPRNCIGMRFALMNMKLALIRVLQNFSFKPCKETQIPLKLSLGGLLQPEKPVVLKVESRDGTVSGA
READOUT_LABEL: AC50

COMPOUND	TESTED_ON	READOUT_LABEL	MEASURED_VALUE
Cc1ccc(S(=O)(=O)NC(=O)CSc2nc3ccccc3s2)cc1	Cytochrome P450 3A4 (Homo sapiens, UniProt P08684)	AC50	14.1 µM (inconclusive)
COC(=O)N1CCC2(CCCN(C(=O)Nc3cccc(F)c3)C2)CC1	Cytochrome P450 3A4 (Homo sapiens, UniProt P08684)	AC50	25.1 µM (inconclusive)
COc1cc(OC)c2c(c1Cl)O[C@@]1(C2=O)[C@H](C)CC(=O)C[C@@H]1OC	Cytochrome P450 3A4 (Homo sapiens, UniProt P08684)	AC50	12.6 µM (inconclusive)
CC(=O)c1cc(NC(=O)c2cccc(C(F)(F)F)c2)c(=O)oc1/C=C/N(C)C	Cytochrome P450 3A4 (Homo sapiens, UniProt P08684)	AC50	6.31 µM (inconclusive)
O=C(c1cccc(F)c1)N1CCC2(CCCN(Cc3ccncc3)C2)CC1	Cytochrome P450 3A4 (Homo sapiens, UniProt P08684)	AC50	3.98 µM (inconclusive)
COC(=O)C/C=C\[C@@H](C)[C@@H](/C=N\OC[C@@H](O)[C@H]1O[C@H]2OC(C)(C)O[C@H]2[C@@H]1O)OC	Cytochrome P450 3A4 (Homo sapiens, UniProt P08684)	AC50	5.01 µM (inconclusive)
CCc1ccc2c(-c3cccc(Cl)c3)nc(=O)n(CC)c2n1	Cytochrome P450 3A4 (Homo sapiens, UniProt P08684)	AC50	31.6 µM (inconclusive)
C[C@@]1(C(NC(=O)c2cccs2)c2ccc(-c3ccccc3)cc2)C[C@H]1C1CCCCC1 (stereo partly drawn)	Cytochrome P450 3A4 (Homo sapiens, UniProt P08684)	AC50	20 µM (inconclusive)
